# Tested on: melanoma cells B-16
# assay.remarks: Inhibiting effect on melanin synthesis in pigment cells (whiteness of cell residue observed by eye)
# Type: cell-based
# Design: key: −: same colour as the comparative solvent example (black); +: slight colour difference from the comparative solvent example (black grey); ++: clear colour difference from the comparative solvent example (white grey); +++: no colour in the cells (white)
# experimental.conditions: 1.6 ppm in culture medium, 4 days, B-16 melanoma cells
readout.kind: whiteness of cells rated by eye (melanin synthesis inhibition)

CC(O)CCC1C(C)CCCC1(C)C (stereo not shown) [tetrahydroionol, reference compound]; −
OC1CCCCCCCCCCCCCC1; +
O=C1CCCCCCCCCCCC=CCCCCCCCCCC1O (stereo not shown) [2-hydroxy-12-cyclotetracosenone]; +++
O=C1CCC/C=C\CCCCCCCCCC1 [5(Z)-cyclohexadecenone]; +
